system: CYP3A4; test: Induction of CYP3A4 mRNA expression in human hepatocytes at 10 uM after 72 hrs by RT-PCR analysis relative to vehicle-treated control
experimental endpoint: fold induction at 72 h, 10 µM
Response field accepts a number only; no unit should be typed.

Query: Look up fold induction at 72 h, 10 µM: C[C@H]1[C@@H](O)O[C@@H]2O[C@@]3(C)CC[C@H]4[C@H](C)CC[C@@H]1[C@@]24OO3
Reply: 3.4
